- Experimental Details: Metabolic stability in mouse liver microsomes
- Format: in vitro ADME
Measured Attribute: Metabolic Stability Study M = mouse

GET /value?item= CC(NC(=O)Nc1ccc(S(=O)(=O)Nc2ccc3c(c2)CCN(C)C3)cc1)c1cccc(F)c1F (centres unmarked) &field=Metabolic Stability Study M = mouse returns 69.3 µL/min/mg

GET /value?item= CC(NC(=O)Nc1ccc(S(=O)(=O)Cc2cc3c(s2)CN(C)C3)cc1)c1ccccc1 (centres unmarked) &field=Metabolic Stability Study M = mouse returns 81.9 µL/min/mg

GET /value?item= CC(NC(=O)Nc1ccc(S(=O)(=O)Nc2ccc3c(c2)CCN(C)C3)cc1)c1cccc(Cl)c1Cl (centres unmarked) &field=Metabolic Stability Study M = mouse returns 54 µL/min/mg

GET /value?item= CC(NC(=O)Nc1ccc(S(=O)(=O)Cc2ccc3c(c2)CN(C2CCOC2)C3)cc1)c1ccccc1.O=C(O)C(F)(F)F (centres unmarked) &field=Metabolic Stability Study M = mouse returns > 500 µL/min/mg

---

- System: GHSR-1a (HEK293/GHSR1a cell line) (Homo sapiens, UniProt Q92847)
- Construct: expressed in transfected cells; host or cells: HEK293/GHSR1a cell line
- Experimental Details: Ghrelin antagonist potency (IC50) with calcium FLIPR assay, ghrelin 10 nM
- Format: cell-based
- Settings: ghrelin antagonist potency, read-out: Activity IC50
Assignment: determine reported IC50 for the given compounds.
Give the value, in units of nM, as a plain number.

GET /value?item= COC(=O)c1cc(S(=O)(=O)Cc2ccc3c(c2)CNC3)ccc1NC(=O)NC(C)c1ccccc1 (stereo not drawn) [H1459] &field=IC50 returns 11.5

GET /value?item= C[C@H](NC(=O)Nc1ccc(S(=O)(=O)Cc2nc3c(s2)CNC3)cc1)c1ccccc1 [H1465] &field=IC50 returns 5290

GET /value?item= COc1cc(NC(=O)NC(C)c2ccccc2)ccc1S(=O)(=O)Cc1ccc2c(c1)CNC2 (stereo not drawn) [H1461] &field=IC50 returns 7.9

GET /value?item= CC(NC(=O)N(O)c1ccc(S(=O)(=O)Cc2ccc3c(c2)CNC3)cc1)c1ccccc1 (stereo not drawn) [H1473] &field=IC50 returns 2240

GET /value?item= CC(NC(=O)Nc1ccc(S(=O)(=O)Cc2ccc3c(c2)C(F)(F)CNC3)cc1)c1ccccc1 (stereo not drawn) [H1545] &field=IC50 returns 1720

GET /value?item= CC(NC(=O)Nc1ccc(S(=O)(=O)Cc2ccc3c(c2)CNC3)cc1C(=O)O)c1ccccc1.Cl (stereo not drawn) [H1486] &field=IC50 returns 9.21

---

Assignment: determine reported pEC50 for the given compounds.
- System: recombinant human ghrelin receptor (HEK293/GRLN) (Homo sapiens, UniProt Q92847)
- Construct: expressed in transfected cells
- Sequence (Q92847 whole entry): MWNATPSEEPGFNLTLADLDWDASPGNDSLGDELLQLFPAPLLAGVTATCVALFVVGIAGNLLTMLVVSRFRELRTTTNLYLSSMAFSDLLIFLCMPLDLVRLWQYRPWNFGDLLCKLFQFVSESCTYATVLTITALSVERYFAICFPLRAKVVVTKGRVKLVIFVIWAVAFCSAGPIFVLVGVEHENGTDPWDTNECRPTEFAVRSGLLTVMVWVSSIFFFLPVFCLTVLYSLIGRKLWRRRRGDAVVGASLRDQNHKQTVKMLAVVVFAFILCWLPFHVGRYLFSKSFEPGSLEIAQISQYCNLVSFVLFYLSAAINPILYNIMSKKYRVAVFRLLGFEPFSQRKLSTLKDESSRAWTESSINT
- Experimental Details: Ghrelin inverse agonist potency (EC50) with IP-1 (IP-One HTRF) assay
- Type: cell-based
- Settings: ghrelin inverse agonist potency, IP-1 assay; read-out: Activity EC50
# pEC50 = -log10(concentration in molar units)

GET /value?item= CC(NC(=O)Nc1ccc(S(=O)(=O)Cc2ccc3c(c2)C(F)(F)CNC3)cc1)c1ccccc1 (centres unmarked) &field=pEC50 returns 7.72

GET /value?item= COc1cc(S(=O)(=O)Cc2ccc3c(c2)CN(C)C3)ccc1NC(=O)N(O)C(C)c1cccc(Cl)c1Cl (centres unmarked) &field=pEC50 returns 8.60

GET /value?item= CC(NC(=O)Nc1ccc(S(=O)(=O)Cc2ccc3c(c2)CNC3)c(Br)c1)c1ccccc1 (centres unmarked) &field=pEC50 returns 8.26

GET /value?item= COc1cc(NC(=O)N(O)C(C)c2ccccc2)ccc1S(=O)(=O)Cc1ccc2c(c1)CNC2 (centres unmarked) &field=pEC50 returns 8.02

GET /value?item= COc1cc(S(=O)(=O)Cc2ccc3c(c2)CCNC3)ccc1NC(=O)N(O)C(C)c1cccc(Cl)c1Cl (centres unmarked) &field=pEC50 returns 8.48

GET /value?item= COc1ccc(CNC(=O)Nc2ccc(S(=O)(=O)Cc3ccc4c(c3)CN(C)C4)cc2)cc1Cl &field=pEC50 returns 7.71

GET /value?item= CC(NC(=O)Nc1ccc(S(=O)(=O)Cc2ccc3c(c2)CNC3)cc1-c1cn[nH]c1)c1ccccc1 (centres unmarked) &field=pEC50 returns 7.16

GET /value?item= COc1cc(S(=O)(=O)Cc2ccc3c(c2)CCN(C)C3)ccc1NC(=O)N(O)C(C)c1ccccc1 (centres unmarked) &field=pEC50 returns 7.59

GET /value?item= CC(NC(=O)Nc1ccc(S(=O)(=O)CC2=CC3CCC(C2)N3)cc1)c1cccc(Cl)c1Cl (centres unmarked) &field=pEC50 returns 6.18

GET /value?item= CC(NC(=O)Nc1ccc(S(=O)(=O)Cc2ccc3c(c2)CN(C)C3)c(O)c1)c1ccccc1.O=C(O)C(F)(F)F (centres unmarked) &field=pEC50 returns 8.24

GET /value?item= Cc1ccc(C(C)NC(=O)Nc2ccc(S(=O)(=O)Cc3ccc4c(c3)CNC4)cc2)cc1C(F)F (centres unmarked) &field=pEC50 returns 7.75

GET /value?item= CC(NC(=O)Nc1ccc(S(=O)(=O)Cc2ccc3c(c2)CNC3)cc1-c1ncco1)c1ccccc1 (centres unmarked) &field=pEC50 returns 8.21

GET /value?item= COc1cc(NC(=O)N(O)C(C)c2ccccc2F)ccc1S(=O)(=O)Cc1ccc2c(c1)CN(C)C2 (centres unmarked) &field=pEC50 returns 8.28

GET /value?item= CC(NC(=O)Nc1ccc(S(=O)(=O)Cc2ccc3c(c2)C(F)(F)CNC3)cc1)c1cccc(Cl)c1Cl (centres unmarked) &field=pEC50 returns 7.46

GET /value?item= CC(NC(=O)Nc1ccc(S(=O)(=O)Cc2ccc3c(c2)CNC3)cc1-c1cc[nH]n1)c1ccccc1 (centres unmarked) &field=pEC50 returns 8.34

GET /value?item= CC(NC(=O)Nc1ccc(S(=O)(=O)Cc2ccc3c(c2)CNC3)cc1C(=O)O)c1cccc(Cl)c1Cl (centres unmarked) &field=pEC50 returns 8.92

GET /value?item= CC(NC(=O)Nc1ccc(S(=O)(=O)Cc2ccc3c(c2)CNC3)cc1C(C)(C)O)c1ccccc1 (centres unmarked) &field=pEC50 returns 6.56

GET /value?item= CC(NC(=O)Nc1ccc(S(=O)(=O)Cc2ccc3c(c2)CNC3)cc1-c1cccnc1)c1ccccc1 (centres unmarked) &field=pEC50 returns 7.12

GET /value?item= CC(NC(=O)Nc1ccc(S(=O)(=O)Cc2ccc3c(c2)CNC3)cc1-c1ccnn1C)c1ccccc1 (centres unmarked) &field=pEC50 returns 7.08

GET /value?item= CC(NC(=O)Nc1ccc(S(=O)(=O)Cc2ccc3c(c2)CCNC3)cc1C(=O)O)c1cccc(Cl)c1Cl (centres unmarked) &field=pEC50 returns 8.72

GET /value?item= CC(NC(=O)Nc1ccc(S(=O)(=O)Cc2ccc3c(c2)CNC3)c(C2CC2)c1)c1ccccc1 (centres unmarked) &field=pEC50 returns 8.38

GET /value?item= CC(c1ccccc1)N(O)C(=O)Nc1ccc(S(=O)(=O)Cc2ccc3c(c2)CNC3)cc1 (centres unmarked) [H1526] &field=pEC50 returns 7.66

GET /value?item= COc1cc(NC(=O)NC(C)c2ccccc2)ccc1S(=O)(=O)Cc1ccc2c(c1)CNC2 (centres unmarked) &field=pEC50 returns 8.46

---

- Experimental Details: Metabolic stability in human liver microsomes
- Format: in vitro ADME
Assignment: determine reported Metabolic Stability Study H = human for the given compounds.

GET /value?item= COc1cc(S(=O)(=O)Cc2ccc3c(c2)CCNC3)ccc1NC(=O)N[C@H](C)c1cccc(Cl)c1Cl &field=Metabolic Stability Study H = human returns < 10 µL/min/mg

GET /value?item= COc1cc(S(=O)(=O)Cc2ccc3c(c2)CCNC3)ccc1NC(=O)N[C@@H](C)c1cccc(Cl)c1Cl &field=Metabolic Stability Study H = human returns < 10 µL/min/mg

// data source = patent US10501479B2
